target: T1, CD28 (endogenously expressed on Jurkat/IL2 reporter cells) (human, UniProt P10747 19-220); experiment: flow cytometry, Jurkat/IL2 reporter cells (endogenous CD28), PE anti-human Fc
T1 construct: Endogenous CD28 of Jurkat cells; also called human CD28
endpoint_name: MFI at 33.3 nM (MFI)

variant CD80 IgV-Fc A26E/Q33R/E35D/M47L/L85Q/K86E (Fc fusion, not shown: a dimerising Fc or GST, Fc fusions are described in general as dimers) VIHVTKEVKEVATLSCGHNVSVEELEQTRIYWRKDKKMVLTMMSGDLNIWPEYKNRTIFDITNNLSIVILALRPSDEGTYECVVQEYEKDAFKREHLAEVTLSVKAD :: 275
variant CD80 IgV-Fc Q33L/E35D/M47V/L85Q (Fc fusion, not shown: a dimerising Fc or GST) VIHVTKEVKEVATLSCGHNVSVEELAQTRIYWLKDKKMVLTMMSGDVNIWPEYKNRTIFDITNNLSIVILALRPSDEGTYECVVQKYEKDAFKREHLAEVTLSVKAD :: 268
variant CD80 IgV-Fc E35D/M47I/E77A/L85Q/R94W (Fc fusion, not shown: a dimerising Fc or GST) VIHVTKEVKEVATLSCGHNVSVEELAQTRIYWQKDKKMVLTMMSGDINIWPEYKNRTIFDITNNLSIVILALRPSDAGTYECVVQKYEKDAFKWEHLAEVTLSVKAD :: 272
variant CD80 IgV-Fc Q33L/E35D/M47I (Fc fusion, not shown: a dimerising Fc or GST) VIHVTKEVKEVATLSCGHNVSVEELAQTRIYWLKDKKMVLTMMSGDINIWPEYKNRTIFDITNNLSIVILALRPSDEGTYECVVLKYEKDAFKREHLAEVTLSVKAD :: 282
variant CD80 IgV-Fc A26E/Q33R/E35D/M47L/L85Q (Fc fusion, not shown: a dimerising Fc or GST) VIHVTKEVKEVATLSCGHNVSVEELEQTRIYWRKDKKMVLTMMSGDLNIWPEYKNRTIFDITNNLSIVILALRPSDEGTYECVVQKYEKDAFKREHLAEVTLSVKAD :: 264
variant CD80 IgV-Fc S15P/Q33L/E35D/M47L/L85Q (Fc fusion, not shown: a dimerising Fc or GST) VIHVTKEVKEVATLPCGHNVSVEELAQTRIYWLKDKKMVLTMMSGDLNIWPEYKNRTIFDITNNLSIVILALRPSDEGTYECVVQKYEKDAFKREHLAEVTLSVKAD :: 266
variant CD80 IgV-Fc Q33K/E35D/M47V/K89E/K93R (Fc fusion, not shown: a dimerising Fc or GST) VIHVTKEVKEVATLSCGHNVSVEELAQTRIYWKKDKKMVLTMMSGDVNIWPEYKNRTIFDITNNLSIVILALRPSDEGTYECVVLKYEEDAFRREHLAEVTLSVKAD :: 276
